Biological target: recombinant human or murine heat shock protein 70 (hsp70) (human or murine), P0DMV8
Sequence (P0DMV8 whole entry): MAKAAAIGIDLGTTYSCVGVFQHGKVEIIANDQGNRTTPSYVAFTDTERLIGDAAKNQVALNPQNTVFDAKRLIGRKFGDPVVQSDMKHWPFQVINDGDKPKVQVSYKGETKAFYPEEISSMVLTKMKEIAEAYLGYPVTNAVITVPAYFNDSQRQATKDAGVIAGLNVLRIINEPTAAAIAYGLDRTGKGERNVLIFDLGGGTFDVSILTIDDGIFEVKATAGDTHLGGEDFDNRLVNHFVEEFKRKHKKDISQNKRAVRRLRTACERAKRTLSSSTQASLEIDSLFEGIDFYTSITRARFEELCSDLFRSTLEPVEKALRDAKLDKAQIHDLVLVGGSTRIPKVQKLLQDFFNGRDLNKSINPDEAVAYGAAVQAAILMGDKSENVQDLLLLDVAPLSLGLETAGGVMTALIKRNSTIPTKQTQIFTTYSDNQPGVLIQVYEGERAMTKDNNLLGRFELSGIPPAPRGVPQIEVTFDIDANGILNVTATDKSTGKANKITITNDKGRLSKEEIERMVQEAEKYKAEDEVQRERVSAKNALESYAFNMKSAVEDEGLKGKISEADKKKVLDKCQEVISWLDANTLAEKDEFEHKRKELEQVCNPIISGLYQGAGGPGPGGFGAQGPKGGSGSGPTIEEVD
Experiment: binding inhibition assay (Hill plot) against tritiated … on hsp70
Kd values by entry

binder	units.label	Kd
SIINFEKL (modifications not checked) [SIINFEKL (ovalbumin amino acids 257-264)]	µM	279
YMDGTMSQV (modifications not checked) [… (Tyrosinase 368-376, 370D)]	µM	204
IMDQVPFSVGSGHWDFAWPW (modifications not checked)	µM	155
YMDGTMSQVGSGHWDFAWPW (modifications not checked)	µM	24
